# System: Medicago sativa
# ASSAY: Pre-emergence herbicidal activity against Medicago sativa (alfalfa) assessed as growth inhibition at 1.5 ai kg/ha under green house conditions
# Type: functional
ENDPOINT NAME: growth inhibition (GI) (%)
State the answer as a number, implicitly in %.

Known growth inhibition (GI) results, listed for orientation:
COP(=O)(OC)C(C)OC(=O)COc1ccccc1 (stereo unspecified)    27.2
CCOP(=O)(OCC)C(OC(=O)COc1cccc(C(F)(F)F)c1)c1ccc(Cl)cc1 (stereo unspecified)    100

Entry `O=C(O)COc1ccc(Cl)cc1Cl` ; growth inhibition (GI) = 90

Entry COP(=O)(OC)C(C)OC(=O)COc1cccc(F)c1 (stereo unspecified) ; growth inhibition (GI) = 0

Entry CCOP(=O)(OCC)C(OC(=O)COc1cccc(C(F)(F)F)c1)c1ccc2c(c1)OCO2 (stereo unspecified) ; growth inhibition (GI) = 93.2

Entry COP(=O)(OC)C(OC(=O)COc1cccc(C(F)(F)F)c1)c1ccc(Cl)cc1 (stereo unspecified) ; growth inhibition (GI) = 89.8

Entry COP(=O)(OC)C(C)OC(=O)COc1ccc(Cl)cc1Cl (stereo unspecified) ; growth inhibition (GI) = 98

Entry COP(=O)(OC)C(OC(=O)COc1cccc(C(F)(F)F)c1)c1ccccc1Cl (stereo unspecified) ; growth inhibition (GI) = 100

---

# Test system: Echinochloa crus-galli
# ASSAY: Pre-emergence herbicidal activity against Echinochloa crus-galli (barnyard grass) assessed as growth inhibition at 1.5 ai kg/ha under green house conditions
# Format: functional
ENDPOINT NAME: growth inhibition (GI)
Mention the unit after the number when you answer.

COP(=O)(OC)C(OC(=O)COc1ccc(Cl)cc1Cl)c1ccccc1Cl (stereo not drawn)    70%

Entry COP(=O)(OC)C(C)OC(=O)COc1ccc(Cl)cc1Cl (stereo not drawn) [CLACYFOS] ; growth inhibition (GI) = 70%

Entry COP(=O)(OC)C(OC(=O)COc1cccc(C(F)(F)F)c1)c1ccc2c(c1)OCO2 (stereo not drawn) ; growth inhibition (GI) = 70.6%

---

Items are presented alongside their recorded growth inhibition (GI).
# System: Medicago sativa
# ASSAY: Pre-emergence herbicidal activity against Medicago sativa (alfalfa) assessed as growth inhibition at 1.5 ai kg/ha under green house conditions
# Format: functional
State the answer as a number, implicitly in %.

CCCC(OC(=O)COc1ccc(Cl)cc1Cl)P(=O)([O-])OC.[K+] (stereo not drawn)    10.2

Item COP(=O)(OC)C(OC(=O)COc1cccc(C(F)(F)F)c1)c1ccc(C)cc1 (stereo not drawn) was tested on Medicago sativa; the reported growth inhibition (GI) is 100

Item COP(=O)(OC)C(C)OC(=O)COc1cccc(C(F)(F)F)c1 (stereo not drawn) was tested on Medicago sativa; the reported growth inhibition (GI) is 63.8

Item COP(=O)(OC)C(OC(=O)COc1cccc(C(F)(F)F)c1)c1ccc2c(c1)OCO2 (stereo not drawn) was tested on Medicago sativa; the reported growth inhibition (GI) is 100

Item COP(=O)(OC)C(C)OC(=O)COc1cccc(Cl)c1Cl (stereo not drawn) was tested on Medicago sativa; the reported growth inhibition (GI) is 8.3

---

# Test system: Medicago sativa
# ASSAY: Pre-emergence herbicidal activity against Medicago sativa (alfalfa) assessed as growth inhibition at 1.5 ai kg/ha under green house conditions
# Format: functional
ENDPOINT NAME: growth inhibition (GI) (%)
State the answer as a number, implicitly in %.

Known growth inhibition (GI) results, listed for orientation:
COP(=O)(OC)C(C)OC(=O)COc1cc(F)cc(F)c1 (stereo not drawn)    10.4
COP(=O)(OC)C(C)OC(=O)COc1ccc(F)cc1F (stereo not drawn)    52.1

Item `COP(=O)([O-])COC(=O)COc1ccc(Cl)cc1Cl.[Na+]` was tested on Medicago sativa; the reported growth inhibition (GI) is 100
